# IC50 per record follows
Test system: Cyberlindnera jadinii
Assay: In vitro antifungal activity against Candida utilis YC123 at 37 degrees C for 22h
Format: functional, organism-based
Conditions: Williopsis jadinii
Numbered stars: 1 amine (or outer) side, 2 acyl side, 3 side chain; on linkers, the order of the positions; unused ones are H or OH. Bridge positions count the residues as written; N and C are the ends. Square brackets hold non-standard residues; d marks the D form. Peptide text beside a SMILES is read from it. * marks the point of attachment. hTyr(3S-OH,4S-OH,3'-OSO3H) = N[C@H](C(=O)O)[C@H](O)[C@@H](O)c1ccc(O)c(OS(=O)(=O)O)c1; Orn(4R-OH,5R-OH) = O=C([C@H](C[C@@H](O)[C@@H](O)N[*:3])N[*:1])[*:2]; Orn(4R-OH,5S-OH) = O=C([C@H](C[C@@H](O)[C@H](O)N[*:3])N[*:1])[*:2]; hTyr(3S-OH,4S-OH) = N[C@H](C(=O)O)[C@H](O)[C@@H](O)c1ccc(O)cc1; Pro(3S-OH,4S-Me) = C[C@H]1CN[C@H](C(=O)O)[C@H]1O; Benzoyl(4-octyloxy) = CCCCCCCCOc1ccc(C(=O)*)cc1; Gln(3R-OH) = NC(=O)C[C@@H](O)[C@H](N)C(=O)O; Palmitoyl = CCCCCCCCCCCCCCCC(=O)*; Hyp = O=C(O)[C@@H]1C[C@@H](O)CN1

| molecule | IC50 |
| --- | --- |
| CCCCCCCCCCCCCCCC(=O)N[C@H]1C[C@@H](O)[C@H](O)NC(=O)[C@@H]2[C@@H](O)[C@@H](C)CN2C(=O)[C@H]([C@H](O)CC(N)=O)NC(=O)[C@H]([C@H](O)[C@@H](O)c2ccc(O)c(OS(=O)(=O)O)c2)NC(=O)[C@@H]2C[C@@H](O)CN2C(=O)[C@H]([C@@H](C)O)NC1=O (Palmitoyl-[Orn(4R-OH,5S-OH)]T[Hyp][hTyr(3S-OH,4S-OH,3'-OSO3H)][Gln(3R-OH)][Pro(3S-OH,4S-Me)]; lactam 1-C) | 0.03 µg/mL |
| CCCCCCCCOc1ccc(C(=O)N[C@H]2C[C@@H](O)[C@H](O)NC(=O)[C@@H]3[C@@H](O)[C@@H](C)CN3C(=O)[C@H]([C@H](O)CC(N)=O)NC(=O)[C@H]([C@H](O)[C@@H](O)c3ccc(O)c(OS(=O)(=O)[O-])c3)NC(=O)[C@@H]3C[C@@H](O)CN3C(=O)[C@H]([C@@H](C)O)NC2=O)cc1.[Na+] [FR-131535] ({Benzoyl(4-octyloxy)}-[Orn(4R-OH,5S-OH)]T[Hyp][hTyr(3S-OH,4S-OH,3'-OSO3H)][Gln(3R-OH)][Pro(3S-OH,4S-Me)]; lactam 1-C) | 1.35 µg/mL |
| C[C@@H]1[C@H](O)[C@@H](C)/C=C/C=C/C=C/C=C/C=C/C=C/C=C/[C@H](O[C@@H]2O[C@H](C)[C@@H](O)[C@H](N)[C@@H]2O)C[C@@H]2O[C@](O)(C[C@@H](O)C[C@@H](O)[C@H](O)CC[C@@H](O)C[C@@H](O)CC(=O)O[C@H]1C)C[C@H](O)[C@H]2C(=O)O | 0.47 µg/mL |
| CCCCCCCCOc1ccc(C(=O)N[C@H]2C[C@@H](O)[C@@H](O)NC(=O)[C@@H]3[C@@H](O)[C@@H](C)CN3C(=O)[C@H]([C@@H](C)O)NC(=O)[C@H]([C@H](O)[C@@H](O)c3ccc(O)cc3)NC(=O)[C@@H]3C[C@@H](O)CN3C(=O)[C@H]([C@@H](C)O)NC2=O)cc1 [CILOFUNGIN] ({Benzoyl(4-octyloxy)}-[Orn(4R-OH,5R-OH)]T[Hyp][hTyr(3S-OH,4S-OH)]T[Pro(3S-OH,4S-Me)]; lactam 1-C) | 0.94 µg/mL |

###

Test system: Candida tropicalis
Test: In vitro antifungal activity against Candida tropicalis YC118 at 37 degrees C for 22h
Format: functional, organism-based

| compound | IC50 |
| --- | --- |
| C[C@@H]1[C@H](O)[C@@H](C)/C=C/C=C/C=C/C=C/C=C/C=C/C=C/[C@H](O[C@@H]2O[C@H](C)[C@@H](O)[C@H](N)[C@@H]2O)C[C@@H]2O[C@](O)(C[C@@H](O)C[C@@H](O)[C@H](O)CC[C@@H](O)C[C@@H](O)CC(=O)O[C@H]1C)C[C@H](O)[C@H]2C(=O)O [AMPHOTERICIN B] | 0.62 µg/mL |

###

Tested on: Candida albicans
Test: In vivo effective dose for antifungal activity on sc administration in female mice infected with 2.5*10e6 cells/mL of Candida albicans at day 14
Format: functional
Numbered stars: 1 amine (or outer) side, 2 acyl side, 3 side chain; on linkers, the order of the positions; unused ones are H or OH. Bridge positions count the residues as written; N and C are the ends. Square brackets hold non-standard residues; d marks the D form. Peptide text beside a SMILES is read from it. * marks the point of attachment. hTyr(3S-OH,4S-OH,3'-OSO3H) = N[C@H](C(=O)O)[C@H](O)[C@@H](O)c1ccc(O)c(OS(=O)(=O)O)c1; Orn(4R-OH,5R-OH) = O=C([C@H](C[C@@H](O)[C@@H](O)N[*:3])N[*:1])[*:2]; Orn(4R-OH,5S-OH) = O=C([C@H](C[C@@H](O)[C@H](O)N[*:3])N[*:1])[*:2]; hTyr(3S-OH,4S-OH) = N[C@H](C(=O)O)[C@H](O)[C@@H](O)c1ccc(O)cc1; Pro(3S-OH,4S-Me) = C[C@H]1CN[C@H](C(=O)O)[C@H]1O; Benzoyl(4-octyloxy) = CCCCCCCCOc1ccc(C(=O)*)cc1; Gln(3R-OH) = NC(=O)C[C@@H](O)[C@H](N)C(=O)O; Palmitoyl = CCCCCCCCCCCCCCCC(=O)*; Hyp = O=C(O)[C@@H]1C[C@@H](O)CN1
# ED50 per record follows

| compound | reading-unit | relation-symbol | ED50 |
| --- | --- | --- | --- |
| CCCCCCCCCCCCCCCC(=O)N[C@H]1C[C@@H](O)[C@H](O)NC(=O)[C@@H]2[C@@H](O)[C@@H](C)CN2C(=O)[C@H]([C@H](O)CC(N)=O)NC(=O)[C@H]([C@H](O)[C@@H](O)c2ccc(O)c(OS(=O)(=O)O)c2)NC(=O)[C@@H]2C[C@@H](O)CN2C(=O)[C@H]([C@@H](C)O)NC1=O (Palmitoyl-[Orn(4R-OH,5S-OH)]T[Hyp][hTyr(3S-OH,4S-OH,3'-OSO3H)][Gln(3R-OH)][Pro(3S-OH,4S-Me)]; lactam 1-C) | mg/kg | = | 2.9 |
| CCCCCCCCOc1ccc(C(=O)N[C@H]2C[C@@H](O)[C@H](O)NC(=O)[C@@H]3[C@@H](O)[C@@H](C)CN3C(=O)[C@H]([C@H](O)CC(N)=O)NC(=O)[C@H]([C@H](O)[C@@H](O)c3ccc(O)c(OS(=O)(=O)[O-])c3)NC(=O)[C@@H]3C[C@@H](O)CN3C(=O)[C@H]([C@@H](C)O)NC2=O)cc1.[Na+] [FR-131535] ({Benzoyl(4-octyloxy)}-[Orn(4R-OH,5S-OH)]T[Hyp][hTyr(3S-OH,4S-OH,3'-OSO3H)][Gln(3R-OH)][Pro(3S-OH,4S-Me)]; lactam 1-C) | mg/kg | = | 3.5 |
| CCCCCCCCOc1ccc(C(=O)N[C@H]2C[C@@H](O)[C@@H](O)NC(=O)[C@@H]3[C@@H](O)[C@@H](C)CN3C(=O)[C@H]([C@@H](C)O)NC(=O)[C@H]([C@H](O)[C@@H](O)c3ccc(O)cc3)NC(=O)[C@@H]3C[C@@H](O)CN3C(=O)[C@H]([C@@H](C)O)NC2=O)cc1 [CILOFUNGIN] ({Benzoyl(4-octyloxy)}-[Orn(4R-OH,5R-OH)]T[Hyp][hTyr(3S-OH,4S-OH)]T[Pro(3S-OH,4S-Me)]; lactam 1-C) | mg/kg | > | 10 |

###

Tested on: Candida tropicalis
Experiment: In vitro antifungal activity against Candida tropicalis YC118 at 37 degrees C for 22h
Format: functional, organism-based
Numbered stars: 1 amine (or outer) side, 2 acyl side, 3 side chain; on linkers, the order of the positions; unused ones are H or OH. Bridge positions count the residues as written; N and C are the ends. Square brackets hold non-standard residues; d marks the D form. Peptide text beside a SMILES is read from it. * marks the point of attachment. hTyr(3S-OH,4S-OH,3'-OSO3H) = N[C@H](C(=O)O)[C@H](O)[C@@H](O)c1ccc(O)c(OS(=O)(=O)O)c1; Orn(4R-OH,5R-OH) = O=C([C@H](C[C@@H](O)[C@@H](O)N[*:3])N[*:1])[*:2]; Orn(4R-OH,5S-OH) = O=C([C@H](C[C@@H](O)[C@H](O)N[*:3])N[*:1])[*:2]; hTyr(3S-OH,4S-OH) = N[C@H](C(=O)O)[C@H](O)[C@@H](O)c1ccc(O)cc1; Pro(3S-OH,4S-Me) = C[C@H]1CN[C@H](C(=O)O)[C@H]1O; Benzoyl(4-octyloxy) = CCCCCCCCOc1ccc(C(=O)*)cc1; Gln(3R-OH) = NC(=O)C[C@@H](O)[C@H](N)C(=O)O; Palmitoyl = CCCCCCCCCCCCCCCC(=O)*; Hyp = O=C(O)[C@@H]1C[C@@H](O)CN1
# IC50 per record follows

| compound | target-under-test | IC50, µg/mL |
| --- | --- | --- |
| CCCCCCCCOc1ccc(C(=O)N[C@H]2C[C@@H](O)[C@H](O)NC(=O)[C@@H]3[C@@H](O)[C@@H](C)CN3C(=O)[C@H]([C@H](O)CC(N)=O)NC(=O)[C@H]([C@H](O)[C@@H](O)c3ccc(O)c(OS(=O)(=O)[O-])c3)NC(=O)[C@@H]3C[C@@H](O)CN3C(=O)[C@H]([C@@H](C)O)NC2=O)cc1.[Na+] [FR-131535] ({Benzoyl(4-octyloxy)}-[Orn(4R-OH,5S-OH)]T[Hyp][hTyr(3S-OH,4S-OH,3'-OSO3H)][Gln(3R-OH)][Pro(3S-OH,4S-Me)]; lactam 1-C) | Candida tropicalis | 0.47 |
| CCCCCCCCCCCCCCCC(=O)N[C@H]1C[C@@H](O)[C@H](O)NC(=O)[C@@H]2[C@@H](O)[C@@H](C)CN2C(=O)[C@H]([C@H](O)CC(N)=O)NC(=O)[C@H]([C@H](O)[C@@H](O)c2ccc(O)c(OS(=O)(=O)O)c2)NC(=O)[C@@H]2C[C@@H](O)CN2C(=O)[C@H]([C@@H](C)O)NC1=O (Palmitoyl-[Orn(4R-OH,5S-OH)]T[Hyp][hTyr(3S-OH,4S-OH,3'-OSO3H)][Gln(3R-OH)][Pro(3S-OH,4S-Me)]; lactam 1-C) | Candida tropicalis | 0.09 |
| CCCCCCCCOc1ccc(C(=O)N[C@H]2C[C@@H](O)[C@@H](O)NC(=O)[C@@H]3[C@@H](O)[C@@H](C)CN3C(=O)[C@H]([C@@H](C)O)NC(=O)[C@H]([C@H](O)[C@@H](O)c3ccc(O)cc3)NC(=O)[C@@H]3C[C@@H](O)CN3C(=O)[C@H]([C@@H](C)O)NC2=O)cc1 [CILOFUNGIN] ({Benzoyl(4-octyloxy)}-[Orn(4R-OH,5R-OH)]T[Hyp][hTyr(3S-OH,4S-OH)]T[Pro(3S-OH,4S-Me)]; lactam 1-C) | Candida tropicalis | 0.94 |
